Target: Caspase-7 (Homo sapiens, UniProt P55210)
Sequence (P55210 24-198 limits assumed): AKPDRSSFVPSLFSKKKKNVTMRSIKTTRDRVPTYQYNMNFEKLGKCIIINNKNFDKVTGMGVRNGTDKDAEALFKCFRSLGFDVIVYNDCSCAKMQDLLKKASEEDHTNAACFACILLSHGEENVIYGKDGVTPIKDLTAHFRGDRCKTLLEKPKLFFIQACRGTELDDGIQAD
Sequence (P55210 207-303 limits assumed): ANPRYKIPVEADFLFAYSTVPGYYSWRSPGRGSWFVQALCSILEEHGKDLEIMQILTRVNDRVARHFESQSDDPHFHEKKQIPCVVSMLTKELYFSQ
Test: Inhibition of human recombinant caspase 7
pIC50: −log10 of the molar value.
Attribute measured: pIC50

input_smiles=COC[C@@H]1CCCN1S(=O)(=O)c1ccc2c(c1)C(=O)C(=O)N2 attribute_measured=pIC50 experimental_result=6.77

1 = CCCN1C(=O)C(=O)c2cc(S(=O)(=O)N3CCC[C@H]3COC)ccc21
2 = CCCCN1C(=O)C(=O)c2cc(S(=O)(=O)N3CCC[C@H]3COC)ccc21
3 = COC[C@@H]1CCCN1S(=O)(=O)c1ccc2c(c1)C(=O)C(=O)N2CCCCF
4 = CCN1C(=O)C(=O)c2cc(S(=O)(=O)N3CCC[C@H]3COC)ccc21
5 = COC[C@@H]1CCCN1S(=O)(=O)c1ccc2c(c1)C(=O)C(=O)N2CCCOCCCO
Thanks in advance: please rank these 5 entries by pIC50, highest to lowest. Field: ranking. Enter the labels in the order requested.
2, 3, 1, 4, 5
(2: 8.09, 3: 7.55, 1: 7.24, 4: 6.50, 5: 3.95)

* * *

Target: Caspase-7 (Homo sapiens, UniProt P55210)
Assay: Inhibition of human recombinant caspase 7
Attribute measured: IC50

input_smiles=CCCN1C(=O)C(F)(F)c2cc(S(=O)(=O)N3CCC[C@H]3COC)ccc21 experimental_result="> 100 µM"
input_smiles=COC[C@@H]1CCCN1S(=O)(=O)c1ccc2c(c1)C(=O)C(=O)N2CCCOCCCF experimental_result="> 100 µM"

Shifting focus to the molecule that follows.
Requested read-out: IC50. Entry: `COC[C@@H]1CCCN1S(=O)(=O)c1ccc2c(c1)C(=O)C(=O)N2CCCOCCCOS(C)(=O)=O`
> 100 µM
